# System: HT-29
# protocol.details: MTT assay, antiproliferative effect on HT-29
# Assay type: cell-based, human
# assay.setup: 48 h, read-out: IC50 HT-29 48 h
attribute.measured: pIC50
Reminder that pIC50 means the negative base-10 logarithm of the concentration expressed in mol/L.

compound.smiles: COc1cc(C(=O)/C=C/c2cccc(O)c2)cc(OC)c1OC
measured.on: HT-29
numeric.value: 5.13
//
compound.smiles: COc1ccc(/C=C/C(=O)c2cc(OC)c(OC)c(OC)c2)cc1O
measured.on: HT-29
numeric.value: 5.09
//
compound.smiles: COc1ccc(O)cc1/C=C/C(=O)c1cc(OC)c(OC)c(OC)c1
measured.on: HT-29
numeric.value: 4.66

Query: Find the recorded pIC50 belonging to COc1cc(/C=C/C(=O)c2cc(OC)c(OC)c(OC)c2)ccc1O and report it.
Reply: 4.57

Query: Find the recorded pIC50 belonging to COc1cc(C(=O)/C=C/c2ccc(=O)[nH]c2)cc(OC)c1OC and report it.
Reply: 4.63

====

# Test system: PC3
# protocol.details: MTT assay, antiproliferative effect on PC3
# Format: cell-based
# assay.setup: Homo sapiens, PC-3, 48 h, read-out: IC50 PC3 48 h
Property: pIC50; scope: individual molecules
Reminder that pIC50 means the negative base-10 logarithm of the concentration expressed in mol/L.

A selection of reference data follows.
molecule: COc1cc(O)ccc1/C=C/C(=O)c1cc(OC)c(OC)c(OC)c1 [chalcone 4]
numeric.value: 5.52
//
molecule: COc1cc(C(=O)/C=C/c2ccc(O)cc2)cc(OC)c1OC [chalcone 3]
numeric.value: 5.01
//
molecule: COc1cc(C(=O)/C=C/c2coc3ccccc3c2=O)cc(OC)c1OC [chalcone 12]
numeric.value: 4.91
//
molecule: COc1cc(/C=C/C(=O)c2cc(OC)c(OC)c(OC)c2)ccc1O [chalcone 9]
numeric.value: 5.53
//
molecule: COc1cc(C(=O)/C=C/c2coc3ccc(O)cc3c2=O)cc(OC)c1OC [chalcone 15]
numeric.value: 5.12

Would you kindly look at the next entry?
Query: Find the recorded pIC50 belonging to COc1ccc(O)cc1/C=C/C(=O)c1cc(OC)c(OC)c(OC)c1 [chalcone 5] and report it.
Reply: 5.40

====

# Tested on: PC3
# protocol.details: MTT assay, antiproliferative effect on PC3
# Type: cell-based
# assay.setup: Homo sapiens, PC-3, 24 h, read-out: IC50 PC3 24 h
Property: IC50; scope: individual molecules
Express your answer in µM, writing the number without its unit.

A selection of reference data follows.
compound.smiles: COc1ccc(/C=C/C(=O)c2cc(OC)c(OC)c(OC)c2)c(O)c1
IC50, µM: 2.57
//
compound.smiles: COc1cc(C(=O)/C=C/c2ccccc2O)cc(OC)c1OC
IC50, µM: 5.04
//
compound.smiles: COc1ccc(O)cc1/C=C/C(=O)c1cc(OC)c(OC)c(OC)c1
IC50, µM: 5.54
//
compound.smiles: COc1cc(C(=O)/C=C/c2cccc(O)c2)cc(OC)c1OC
IC50, µM: 3.76
//
compound.smiles: COc1cc(C(=O)/C=C/c2ccc(O)cc2)cc(OC)c1OC
IC50, µM: 10.9

Query: Find the recorded IC50 belonging to COc1cc(C(=O)/C=C/c2coc3ccc(O)cc3c2=O)cc(OC)c1OC and report it.
Reply: 6.48

Query: Find the recorded IC50 belonging to COc1cc(O)ccc1/C=C/C(=O)c1cc(OC)c(OC)c(OC)c1 and report it.
Reply: 4.8

Query: Find the recorded IC50 belonging to COc1cc(C(=O)/C=C/c2coc3ccc(C(C)C)cc3c2=O)cc(OC)c1OC and report it.
Reply: 14.1

Query: Find the recorded IC50 belonging to COc1cc(C(=O)/C=C/c2ccc(=O)[nH]c2)cc(OC)c1OC and report it.
Reply: 24.5

Query: Find the recorded IC50 belonging to COc1cc(C(=O)/C=C/c2coc3ccccc3c2=O)cc(OC)c1OC and report it.
Reply: 11.5
